Values from patent US20240270701A1

- measured.target: B2-AR (Homo sapiens)
- Construct: expressed in transfected cells; host or cells: CHO-K1
- Sequence (P07550 whole entry, species assumed): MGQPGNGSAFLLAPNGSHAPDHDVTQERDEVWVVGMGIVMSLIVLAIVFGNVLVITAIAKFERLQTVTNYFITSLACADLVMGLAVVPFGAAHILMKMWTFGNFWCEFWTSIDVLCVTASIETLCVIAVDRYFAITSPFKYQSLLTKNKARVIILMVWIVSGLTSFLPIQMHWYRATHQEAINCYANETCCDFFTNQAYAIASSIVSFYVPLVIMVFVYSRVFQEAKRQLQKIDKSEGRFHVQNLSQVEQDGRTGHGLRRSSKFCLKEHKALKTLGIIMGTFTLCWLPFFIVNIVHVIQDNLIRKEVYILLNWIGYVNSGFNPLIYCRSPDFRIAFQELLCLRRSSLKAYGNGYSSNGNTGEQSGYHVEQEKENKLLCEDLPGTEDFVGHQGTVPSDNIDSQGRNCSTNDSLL
- assay.name: cAMP Gs dynamic HTRF assay, cells expressing beta-adrenergic receptor (CHO-K1), B2-AR
- Format: cell-based
- condition.description: CHO-K1 cells, cAMP HTRF; read-out: pEC50 [B2-AR] (converted)
observable: EC50

{"columns": ["substance.smiles", "observable", "reported"],
 "data": [
  ["CC(C)C(C)(C)NC[C@H](O)c1cccc2[nH]nc(F)c12", "EC50", "< 10 nM"],
  ["CC(C)(C)NC[C@H](O)c1cccc2[nH]nc(Cl)c12", "EC50", "< 10 nM"],
  ["C[C@@H](NC[C@H](O)c1ccc(F)c2[nH]ncc12)C(C)(C)C", "EC50", "< 10 nM"],
  ["CC(C)(CO)NC[C@H](O)c1cncc2[nH]ncc12", "EC50", "100 to 1000 nM"],
  ["CCC(C)(C)NC[C@H](O)c1ccc(Cl)c2[nH]ncc12", "EC50", "< 10 nM"],
  ["CCC(C)(C)NC[C@H](O)c1cccc2[nH]nc(C)c12", "EC50", "10 to 100 nM"],
  ["O[C@@H](CNC1CC1)c1cccc2[nH]ncc12", "EC50", "< 10 nM"],
  ["CCC(C)(CC)NC[C@H](O)c1cccc2[nH]ncc12", "EC50", "< 10 nM"],
  ["Cc1ncccc1[C@@H](O)CNC1(C)CCC1", "EC50", "10 to 100 nM"],
  ["Cc1cc([C@@H](O)CNC2CC2)c2cn[nH]c2c1", "EC50", "< 10 nM"],
  ["Cc1nc(N)c(Cl)cc1[C@@H](CO)NC1CC(F)(F)C1", "EC50", "> 1000 nM"],
  ["CC(C)(C)NC[C@H](O)c1ccc2nccnc2c1", "EC50", "10 to 100 nM"],
  ["Cc1ncccc1[C@@H](O)CNC(C)C", "EC50", "100 to 1000 nM"],
  ["O[C@@H](CNC1CCC1)c1cncc2[nH]ncc12", "EC50", "100 to 1000 nM"],
  ["CCC(C)(C)NC[C@H](O)c1cccc2[nH]nc(Cl)c12", "EC50", "< 10 nM"],
  ["CC(C)[C@@H](C)NC[C@H](O)c1ccc(F)c2[nH]ncc12", "EC50", "< 10 nM"],
  ["CC(C)CNC[C@H](O)c1cncc2[nH]ncc12", "EC50", "> 1000 nM"]
]}

###

Listing: Emax of selected molecules
- measured.target: B1-AR (Homo sapiens, UniProt P08588)
- Construct: expressed in transfected cells; host or cells: CHO-K1
- Sequence (P08588 whole entry, species assumed): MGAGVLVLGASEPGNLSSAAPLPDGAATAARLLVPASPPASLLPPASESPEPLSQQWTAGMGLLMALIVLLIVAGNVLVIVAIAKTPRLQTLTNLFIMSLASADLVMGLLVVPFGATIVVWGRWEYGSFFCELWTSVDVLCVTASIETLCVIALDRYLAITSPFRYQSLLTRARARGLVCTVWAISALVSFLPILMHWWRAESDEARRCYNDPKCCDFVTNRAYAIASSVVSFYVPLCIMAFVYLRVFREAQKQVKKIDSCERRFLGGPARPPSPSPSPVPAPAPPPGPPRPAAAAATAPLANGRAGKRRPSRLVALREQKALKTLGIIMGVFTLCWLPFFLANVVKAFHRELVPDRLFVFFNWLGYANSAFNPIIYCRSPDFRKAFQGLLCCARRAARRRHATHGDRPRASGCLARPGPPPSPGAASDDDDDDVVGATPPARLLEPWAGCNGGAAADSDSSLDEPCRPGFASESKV
- assay.name: cAMP Gs dynamic HTRF assay, cells expressing beta-adrenergic receptor (CHO-K1), B1-AR
- Assay type: cell-based
- condition.description: relative to full agonist isoproterenol, read-out: Emax (% iso) (%) [B1-AR]

{"columns": ["substance.smiles", "Emax"],
 "data": [
  ["CC(C)(C)NC[C@H](O)c1ccc(OC(F)F)c2[nH]ncc12", "50 to 70%"],
  ["O[C@@H](CNC1CC1)c1ccc(Cl)c2[nH]ncc12", "50 to 70%"],
  ["Cc1n[nH]c2cccc([C@@H](O)CNC3(C)CCC3)c12", "70 to 90%"],
  ["CC1(CNC[C@H](O)c2ccc(F)c3[nH]ncc23)CC1", "70 to 90%"],
  ["Cc1n[nH]c2cccc([C@@H](O)CNC(C)C)c12", "70 to 90%"],
  ["CC(C)(C)NC[C@H](O)c1cccc2[nH]nc(Cl)c12", "> 90%"],
  ["CC(C)CNC[C@H](O)c1cccc2[nH]nc(F)c12", "70 to 90%"],
  ["CCC(C)(C)NC[C@H](O)c1cc(Cl)c(N)nc1C", "70 to 90%"],
  ["Cc1ncccc1[C@@H](O)CNC1CC(C)(C)C1", "< 50%"],
  ["Cc1nc(N)ncc1[C@@H](O)CNC(C)(C)C", "70 to 90%"],
  ["Cn1nc(F)c2c([C@@H](O)CNC(C)(C)C)cccc21", "70 to 90%"]
]}
